Measured AC50 of individual entries
- measurement.target: human PAH with the R408W mutation (Homo sapiens, UniProt P00439, R408W)
- Construct: expressed in transfected cells
- assay.explanation: Cell Based Phenylalanine Flux Assay
- test.settings: A375 cells expressing human R408W PAH; 24 hrs with compound; 13C-Tyrosine by LC-MS; average where tested multiple times; read-out: AC50

Sample records with AC50:
molecule="CN(C)Cc1cc(C(=O)N2CCc3[nH]cnc3C2c2nc3c(F)cccc3s2)n(C)n1 (centres unmarked)" value_reported="> 5 µM"
molecule="CC1CN(C(=O)c2cnco2)C(c2nc3c(F)cccc3s2)c2nc[nH]c21 (centres unmarked)" value_reported="> 5 µM"
molecule="Cc1nnc(C(=O)N2CCc3[nH]cnc3C2c2nc3cc(F)ccc3s2)s1 (centres unmarked)" value_reported="1 to 5 µM"
molecule="CC1CN(C(=O)c2nnc(C(C)(C)O)o2)C(c2nc3ccccc3s2)c2nc[nH]c21 (centres unmarked)" value_reported="> 5 µM"

## Input Name the recorded AC50 for Cc1nnc(CCC(=O)N2CCc3[nH]cnc3C2c2nc3ccccc3s2)o1 (centres unmarked) .
## Output 1 to 5 µM

---

- measurement.target: human PAH with the R408W mutation (Homo sapiens, UniProt P00439, R408W)
- Construct: expressed in transfected cells
- assay.explanation: Cell Based Phenylalanine Flux Assay
- test.settings: A375 cells expressing human R408W PAH; 24 hrs compound incubation; 13C-Tyrosine by LC-MS; average where tested multiple times; read-out: AC50
quantity: AC50

compound="O=C(c1nnc(C2CC2)o1)N1CCc2[nH]cnc2[C@@H]1c1nc2ccccc2s1 [Example 1364]" quantity=AC50 value_reported="1000 to 5000 nM"

# evaluate next
## Input # input compound: c1ccc2sc([C@@H]3c4nc[nH]c4CCN3Cc3nccs3)nc2c1 [Example 1139] ; wanted: its AC50
## Output 500 to 1000 nM

---

- measurement.target: human PAH with the R408W mutation (Homo sapiens, UniProt P00439, R408W)
- Construct: expressed in transfected cells
- Sequence (P00439 1-452 R408W): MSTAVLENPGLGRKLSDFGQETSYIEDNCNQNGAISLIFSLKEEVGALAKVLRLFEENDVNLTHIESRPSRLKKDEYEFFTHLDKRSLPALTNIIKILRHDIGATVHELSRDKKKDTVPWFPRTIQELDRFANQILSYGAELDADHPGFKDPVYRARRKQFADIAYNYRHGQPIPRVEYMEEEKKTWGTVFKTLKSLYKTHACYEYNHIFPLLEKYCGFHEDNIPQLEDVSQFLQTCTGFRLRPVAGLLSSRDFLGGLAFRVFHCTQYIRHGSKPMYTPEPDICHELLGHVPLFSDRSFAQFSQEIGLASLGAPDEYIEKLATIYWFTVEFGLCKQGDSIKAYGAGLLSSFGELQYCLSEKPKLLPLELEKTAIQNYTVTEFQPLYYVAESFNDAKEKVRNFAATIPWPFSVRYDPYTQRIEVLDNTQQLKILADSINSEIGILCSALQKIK
- assay.explanation: Cell Based Phenylalanine Flux Assay
- test.settings: A375 cells expressing human R408W PAH; 24 hrs with compound; 13C-Tyrosine by LC-MS; average where tested multiple times; read-out: AC50
# maps each entry to its AC50

Here are 3 compounds together with their reported answers.
compound=O=C(CCCc1ccc(F)cc1)N1CCc2[nH]cnc2[C@H]1c1nc2ccccc2[nH]1 measurement_target="human PAH with the R408W mutation (Homo sapiens, UniProt P00439, R408W)" value_reported="1 to 5 µM"
compound="COc1cccc(C=CC(=O)N2CCc3[nH]cnc3C2c2nc3ccccc3[nH]2)c1 (centres unmarked)" measurement_target="human PAH with the R408W mutation (Homo sapiens, UniProt P00439, R408W)" value_reported="> 5 µM"
compound=O=C(C1CC1)N1CCc2[nH]cnc2[C@H]1c1nc2ccccc2[nH]1 measurement_target="human PAH with the R408W mutation (Homo sapiens, UniProt P00439, R408W)" value_reported="1 to 5 µM"

## Input # lookup: AC50 of O=C(Cc1nccs1)N1CCc2[nH]cnc2C1c1nc2ccc(Br)cc2s1 (centres unmarked)
## Output 1 to 5 µM

## Input Can you share its AC50? I mean this compound: COCc1ncc(C(=O)N2CCc3[nH]cnc3C2c2nc3ccccc3s2)o1 (centres unmarked)
## Output > 5 µM

## Input I'd like to know its AC50. The compound in question is Cc1nc(CCN2CC(F)C2)oc1C(=O)N1CCc2[nH]cnc2C1c1nc2ccccc2s1 (centres unmarked)
## Output > 5 µM

## Input What value of measured AC50 is listed for O=C(c1nccs1)N1CCc2[nH]cnc2[C@H]1c1nc2ccc(Cl)cc2s1 (single isomer, unassigned) ?
## Output 1 to 5 µM

## Input Which AC50 reading was recorded for the compound O=C(c1nc2ccccc2s1)N1CCc2[nH]cnc2C1c1nc2ccccc2[nH]1 (centres unmarked) ?
## Output > 5 µM

Cited source: patent US20250171438A1
